B1: POU domain, class 3, transcription factor 4, residues 280 to 335; numbered along this chain, P49335 (parent)
chain: KKRTSIEVSVKGVLETHFLKCPKPAAQEISSLADSLQLEKEVVRVWFCNRRQKEKR

Variants of: B1
Assay: abundance fitness (aPCA) (normalised: wild type 0, dead -1); higher = more abundant; growth selection in yeast, the domain comes from the species named
Details: Homo sapiens
Measurement type: abundance fitness
Give bare numbers.

Worked cases, abundance fitness given:
K11D : 0.119
A26K : -0.415

Give abundance fitness for each of the items listed below.
1. V43C
2. S30F
3. A33E
4. V8Q
5. V45A
6. K1G
7. R50E

Result:
1: -0.832; 2: -0.332; 3: -0.634; 4: 0.405; 5: 0.085; 6: -0.243; 7: -0.814

Give abundance fitness for each of the items listed below.
1. E54V
2. C48P
3. N49M
4. L14F
5. R44A
6. S31L
7. R3P
8. R56N

Result:
[-0.634, -0.762, -0.304, -0.887, -0.193, -0.114, 0.122, 0.38]
